Source of measurements: PubChem BioAssay

# Lookup of reported inhibition keyed by entry
tgt: Sentrin-specific protease 6 (Homo sapiens) (UniProt Q9GZR1)
Sequence (Q9GZR1 628-1112 limits assumed): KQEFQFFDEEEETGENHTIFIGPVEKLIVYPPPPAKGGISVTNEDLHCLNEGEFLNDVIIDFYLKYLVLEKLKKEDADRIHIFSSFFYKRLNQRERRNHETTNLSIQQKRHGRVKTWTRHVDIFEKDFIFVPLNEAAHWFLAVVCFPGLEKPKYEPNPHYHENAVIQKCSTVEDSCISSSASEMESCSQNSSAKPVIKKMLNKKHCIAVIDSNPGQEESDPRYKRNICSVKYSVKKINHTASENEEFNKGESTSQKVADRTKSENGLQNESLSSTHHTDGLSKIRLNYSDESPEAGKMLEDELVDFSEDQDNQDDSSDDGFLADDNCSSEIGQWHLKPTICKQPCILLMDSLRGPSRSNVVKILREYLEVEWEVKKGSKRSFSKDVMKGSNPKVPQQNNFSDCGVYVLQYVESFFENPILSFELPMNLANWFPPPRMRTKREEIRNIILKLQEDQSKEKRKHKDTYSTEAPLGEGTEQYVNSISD
procedure_details: SENP6 protease inhibitors, confirmation, biochemical, luminescence, single concentration (AID 488915)
measurement_setup: recombinant SENP6, Z-RLRGG-aminoluciferin luminescence; at 12.5 µM; active compounds read high
The list shows a part of the results.
Expressed in %, but write only the number.

| compound | tgt | unit_string | inhibition |
| --- | --- | --- | --- |
| N#Cc1c(N2CCCCC2)nc(N)c2c(N)nc(SCC(=O)O)cc12 | Sentrin-specific protease 6 (Homo sapiens) (UniProt Q9GZR1) | % | 72.6 |
| Cc1c(Cl)cccc1NC(=O)Nc1ccc(C(=O)N2CCCC2)cc1 | Sentrin-specific protease 6 (Homo sapiens) (UniProt Q9GZR1) | % | 43 |
| Cc1ccc(NC(=O)c2sccc2C)cc1[N+](=O)[O-] | Sentrin-specific protease 6 (Homo sapiens) (UniProt Q9GZR1) | % | 77.5 |
| COc1ccc(-n2nnnc2-c2nc3ccccc3s2)cc1 | Sentrin-specific protease 6 (Homo sapiens) (UniProt Q9GZR1) | % | 26.7 |
| COc1ccc(-c2cn3ccc(C)cc3n2)cc1 | Sentrin-specific protease 6 (Homo sapiens) (UniProt Q9GZR1) | % | 88.1 |
| O=C(OC1CCOC1=O)c1ccc(-c2nc3ccccc3s2)s1 (stereo not drawn) | Sentrin-specific protease 6 (Homo sapiens) (UniProt Q9GZR1) | % | 95.8 |

Value of measured inhibition for the entry CC(=O)Nc1cccc(C(=O)OCC(=O)c2ccc3c(c2)OCO3)c1 : 83.1

Value of measured inhibition for the entry CCCCCc1ccc(-c2ccc(C(=O)O)cc2)nc1 : 54.7

Value of measured inhibition for the entry Nc1[nH][nH]c(=O)c1N=Nc1ccc2c(c1)OCO2 : 39.2

Value of measured inhibition for the entry CC(=O)Oc1ccc2c(=O)oc(-c3ccc([N+](=O)[O-])cc3)nc2c1 : -1.5

Value of measured inhibition for the entry CC(=NCc1ccco1)c1c(C(F)(F)F)[nH]n(-c2nc3ccccc3s2)c1=O : 91.9

----------
tgt: COP9 signalosome complex subunit 5 (Homo sapiens)
procedure_details: Csn5 deneddylation inhibitors, confirmation, biochemical, fluorescence polarization, single concentration, SCF-Nedd8OG substrate (AID 720654);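 also: 0% = DMSO with enzyme and 100% = no enzyme wells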
measurement_setup: Csn5 deneddylation of SCF-Nedd8OG, 90 min, at 16.6 µM
Some of the results follow. Active and inactive are the calls of the source. No stated cut-off is given here; in the data, active means inhibition above about 50%; inactive means the rest.
Write down the outcome that applies. Available outcomes: active, inactive

Worked set:
| molecule | tgt | class_name |
| --- | --- | --- |
| COc1cccc(/C=N/NC(=O)c2[nH]nc3c2CCc2ccccc2-3)c1O | COP9 signalosome complex subunit 5 (Homo sapiens) | inactive |
| Cc1ccc(C(=O)O)cc1-c1ccc(/C=C2\SC(=O)N(CC(=O)Nc3ccc4c(c3)OCO4)C2=O)o1 | COP9 signalosome complex subunit 5 (Homo sapiens) | active |
| COc1cc(/C=C(\C#N)c2nc3ccccc3[nH]2)ccc1O | COP9 signalosome complex subunit 5 (Homo sapiens) | active |
| CCN1/C(=C\c2ccc3ccccc3[n+]2CC)Sc2cc(C)ccc21 | COP9 signalosome complex subunit 5 (Homo sapiens) | inactive |
| COc1ccc2[nH]c3c(C)c4cc[n+](C)cc4c(C)c3c2c1 | COP9 signalosome complex subunit 5 (Homo sapiens) | inactive |
| CC(C)Cn1c(N)c(C(=O)NCc2cccs2)c2nc3ccccc3nc21 | COP9 signalosome complex subunit 5 (Homo sapiens) | active |
| COc1ccc2c(c1)c(=Cc1ccc(N(C)C)cc1)c1cc(-c3ccccc3)[n+](C)n12 | COP9 signalosome complex subunit 5 (Homo sapiens) | active |
| CN1CCN(CCCNC(=O)c2ccc(/C=C3\Oc4ccccc4N(Cc4ccc(Cl)cc4)C3=O)cc2)CC1 | COP9 signalosome complex subunit 5 (Homo sapiens) | inactive |

// param item: CS(=O)(=O)c1ccc2c(c1)SC1=NC(=O)/C(=C/c3ccco3)C(=N)N12 ; yields the recorded call
inactive

// param item: CCC(C)Cn1c(O)cc2nn(-c3nc4ccccc4s3)c(=O)c-2c1C (stereo not given) ; yields the recorded call
active
